Tested on: McpC ligand-binding domain (Salmonella Typhimurium SL1344)
ASSAY PROTOCOL: protein melting temperature (Tm) in presence of compound (degrees C); higher = more thermal stabilisation (possible ligand binding)
SETTINGS: Biolog plate: PM02A; compound stock concentration: 10-20 mM, 2 uL in 10 uL reaction
PROPERTY LABEL: protein melting temperature

Known protein melting temperature results, listed for orientation:
>  <COMPOUND>
CC(=O)N[C@H]1C(O)O[C@H](CO)[C@H](O)[C@@H]1O (some centres not stated)

>  <protein melting temperature>
44.6

$$$$
>  <COMPOUND>
N[C@@H](Cc1c[nH]cn1)C(=O)O

>  <protein melting temperature>
44.7

$$$$

Now look at this entry.
Problem: Identify measured protein melting temperature associated with OC1OC[C@@H](O)[C@@H](O)[C@@H]1O (some centres not stated)
Solution: 43.6
